biological target: bispecific binding molecule comprising a first specific binding molecule (comprising SEQ ID NO:265 a)
Sequence (chain, as listed by the source, chain 1 of 3): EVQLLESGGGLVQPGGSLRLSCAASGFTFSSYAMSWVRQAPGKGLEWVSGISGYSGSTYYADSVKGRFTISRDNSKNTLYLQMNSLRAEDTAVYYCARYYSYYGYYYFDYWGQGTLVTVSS
Sequence (chain, as listed by the source, chain 2 of 3): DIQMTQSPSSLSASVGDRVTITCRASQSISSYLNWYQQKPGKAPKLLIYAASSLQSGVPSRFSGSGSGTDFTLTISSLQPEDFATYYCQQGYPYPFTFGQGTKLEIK
Sequence (chain, as listed by the source, chain 3 of 3): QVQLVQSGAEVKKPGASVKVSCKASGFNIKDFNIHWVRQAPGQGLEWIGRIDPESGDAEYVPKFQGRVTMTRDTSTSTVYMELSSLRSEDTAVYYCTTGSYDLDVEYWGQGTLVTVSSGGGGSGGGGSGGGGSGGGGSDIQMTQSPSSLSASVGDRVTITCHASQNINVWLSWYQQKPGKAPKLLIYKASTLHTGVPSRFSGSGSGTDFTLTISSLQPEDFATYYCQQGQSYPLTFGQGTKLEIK
The following binders are shown together with reported pKd values.
Reminder that pKd means the negative base-10 logarithm of the concentration expressed in mol/L.

BINDER | pKd
FIGITELHKGGSAVGALKVPRNQDWLGVPRQL (modifications not checked) [peptide SEQ ID NO:239 (tag moiety …, GGS spacer, cargo peptide)] | 10.20
FIGITELHK (modifications not checked) [tag moiety … (SEQ ID NO:4)] | 10.82

Returns the measured pKd for the input binder. Input: FIGITELLKSSAESLKISQAVHAAHAEINEAGREVVGSAE (modifications not checked) [peptide SEQ ID NO:241 (tag moiety …, no spacer, cargo peptide)]
10.89
